fluorescence intensity by entry:
Assay: compound fluorescence in toxin protease inhibitor counterscreen, primary screen, artefact control for toxin protease inhibitor project, biochemical, multiplex microsphere, HTS (AID 624483)
Conditions: compound autofluorescence counterscreen, microsphere flow cytometry; active compounds read high
The whole screen tested about 360,000 compounds, of which about 11,000 (3.1%) were called active. Not shown: some 2% with an inconclusive outcome. For the sample, actives were picked, then their nearest neighbours and some compounds at random.
Lab note: record the figure alone, no unit after it.

Worked cases, answers included:
>>> df
                                   molecule      parameter_measured  readout_number
0  OCCN1CCN(c2ncnc3c2ncn3[C@H]2CN(Cc3ccco3)C[C@@H](CO)O2)CC1  fluorescence intensity            2940
1  O=C(/C=C/c1cccs1)c1cc(Cl)ccc1OC(=O)N1CCOCC1  fluorescence intensity            2170
2  Cc1cc(C)cc(OCC(=O)Nc2ccc(S(=O)(=O)Nc3ccccn3)cc2)c1  fluorescence intensity            2260
3  CC(C)OCCCNc1nc2c(c(=O)n(Cc3ccccc3F)c(=O)n2C)n1C  fluorescence intensity           23400
4      O=c1c2ccccc2[nH]c(=S)n1-c1cccc(Cl)c1  fluorescence intensity            4010

Write down fluorescence intensity measured for item `Cc1cccc(/C(N)=N/OC(=O)c2ccccc2Cl)c1` 2520

Write down fluorescence intensity measured for item `Cc1ccc(S(=O)(=O)Nc2ccc3ncccc3c2)cc1` 22700

Write down fluorescence intensity measured for item CCOC(=O)N1CCN(c2c(NCCCN3CCCC(C)C3)c(=O)c2=O)CC1 (centres undefined) 4370

Write down fluorescence intensity measured for item `COc1cc2ccccc2cc1C(=O)Nc1ccccc1C` 3900

Write down fluorescence intensity measured for item `CC(C)Cn1cc(-c2cncc3nccn23)cn1` 4100

Write down fluorescence intensity measured for item COc1ccc(CCNC(=O)c2ccc3c(c2)NC(=O)C(N2CCOCC2)S3)cc1OC (centres undefined) 3710

Write down fluorescence intensity measured for item `O=S(=O)(NC1CCCCC1)c1ccc(F)c2ccccc12` 17400

Write down fluorescence intensity measured for item CCCc1[nH]nc2c1C(c1ccc(Br)s1)C(C#N)=C(N)O2 (centres undefined) 2790

Write down fluorescence intensity measured for item `Cc1ccc(NC(=O)COc2ccc(/C=N\NC(=O)c3cccnc3)cc2)cc1C` 4500

Write down fluorescence intensity measured for item `CCOc1ccc(C(=O)Nc2cccc(SC)c2)cc1` 2060

Write down fluorescence intensity measured for item O=C(NCCCN1CCCCC1)c1ccc2c(c1)NC(=O)C(N1CCOCC1)S2 (centres undefined) 20400

The reported measurements were obtained from PubChem BioAssay AID624483.
